Tested on: SK-ES-1
Test: In vitro high-throughput screen of FDA-approved drug library (CellTiter-Glo)
Assay type: cell-based
Details: Homo sapiens, SK-ES1; 1 μmol/L drug, 72 hours; read-out: % Inhibition SK-ES-1
Give inhibition at 1 µM for every item shown.
One number for each entry, in %.

Some compounds with known inhibition at 1 µM results, for comparison:
COMPOUND	inhibition at 1 µM [%]
N[C@@H](Cc1ccc(N(CCCl)CCCl)cc1)C(=O)O	91
COc1cc([C@@H]2c3cc4c(cc3[C@@H](O[C@@H]3O[C@@H]5CO[C@@H](C)O[C@H]5[C@H](O)[C@H]3O)[C@H]3COC(=O)[C@H]23)OCO4)cc(OC)c1O [Etoposide]	84
Nc1nc(Cl)nc2c1ncn2[C@@H]1O[C@H](CO)[C@@H](O)[C@@H]1F	98
COC(=O)Nc1nc2ccc(C(=O)c3ccccc3)cc2[nH]1	96

Prompt: Could you share which inhibition at 1 µM value was measured for "Nc1nc(Cl)nc2c1ncn2[C@H]1C[C@H](O)[C@@H](CO)O1" ?
Response: 89

###

Give inhibition at 1 µM for every item shown.
Test system: SK-ES-1
Experiment: In vitro high-throughput screen of FDA-approved drug library (CellTiter-Glo)
Assay type: cell-based
Settings: Homo sapiens, SK-ES1; 1 μmol/L drug, 72 hours; read-out: % Inhibition SK-ES-1

COMPOUND	MEASURED ON	REPORTED ENDPOINT	ENDPOINT RESULT
Clc1ccccc1CN1CCc2sccc2C1	SK-ES-1	inhibition at 1 µM	< 50%

Parameter requested: inhibition at 1 µM. Apply to each item below.
1. CO[C@@H]1[C@@H](OC(N)=O)[C@@H](O)[C@H](Oc2ccc3c(O)c(NC(=O)c4ccc(O)c(CC=C(C)C)c4)c(=O)oc3c2C)OC1(C)C [Novobiocin sodium]
2. NNC(=O)c1ccncc1

Response:
["< 50%", "< 50%"]
